Test: Tmax in Sprague-Dawley rat plasma at 10 mg/kg, po administered as single dose by LC-MS/MS analysis
Assay type: ADME, organism-based
Assay readout: Tmax
Phrase the answer as number then unit, nothing more needed.

Recorded Tmax (compound O/N=c1\cc(-c2cc3cccn3cn2)oc2ccc(OCCN3CCOCC3)cc12 ): 20 min

Recorded Tmax (compound O/N=c1\cc(-c2cc3sccc3cn2)oc2ccc(CCCN3CCOCC3)cc12 ): 70.2 min

====

Assay: Cmax in Sprague-Dawley rat plasma at 10 mg/kg, po administered as single dose by LC-MS/MS analysis
Type: ADME, organism-based
Parameters: dose 10 mg/kg, route oral
Exercise: for every item that follows, state its recorded Cmax.
Dear colleague, please return just the value in ng/mL, with no unit written.

Recorded Cmax (molecule O/N=c1\cc(-c2cc3cccn3cn2)oc2ccc(OCCN3CCOCC3)cc12 ): 135

Recorded Cmax (molecule O/N=c1\cc(-c2cc3sccc3cn2)oc2ccc(CCCN3CCOCC3)cc12 ): 94

====

Test: Ratio of drug level in Sprague-Dawley rat brain to plasma at 25 mg/kg, po administered as single dose by LC-MS/MS analysis
Assay type: ADME, organism-based
Details: read-out: BPR
Assay readout: Kp

Recorded Kp (compound O/N=c1\cc(-c2cc3sccc3cn2)oc2ccc(CCCN3CCOCC3)cc12 ): ≤ 13.5

====

Experiment: AUC (0 to infinity) in C57BL/6 mouse at 2 mg/kg, iv administered as single dose by LC-MS/MS analysis
Format: ADME, organism-based
Parameters: dose 2 mg/kg, time infinity, route intravenous
Settings: in vivo
Assay readout: AUC(0-inf) (ng·h/mL)
Dear colleague, please return just the value in ng·h/mL, with no unit written.

Recorded AUC(0-inf) (compound O/N=c1\cc(-c2cc3cccn3cn2)oc2ccc(OCCN3CCOCC3)cc12 ): 269

====

Exercise: for every item that follows, state its recorded EC50.
Molecular target: Metabotropic glutamate receptor 4 (Homo sapiens)
Sequence (Q14833 whole entry): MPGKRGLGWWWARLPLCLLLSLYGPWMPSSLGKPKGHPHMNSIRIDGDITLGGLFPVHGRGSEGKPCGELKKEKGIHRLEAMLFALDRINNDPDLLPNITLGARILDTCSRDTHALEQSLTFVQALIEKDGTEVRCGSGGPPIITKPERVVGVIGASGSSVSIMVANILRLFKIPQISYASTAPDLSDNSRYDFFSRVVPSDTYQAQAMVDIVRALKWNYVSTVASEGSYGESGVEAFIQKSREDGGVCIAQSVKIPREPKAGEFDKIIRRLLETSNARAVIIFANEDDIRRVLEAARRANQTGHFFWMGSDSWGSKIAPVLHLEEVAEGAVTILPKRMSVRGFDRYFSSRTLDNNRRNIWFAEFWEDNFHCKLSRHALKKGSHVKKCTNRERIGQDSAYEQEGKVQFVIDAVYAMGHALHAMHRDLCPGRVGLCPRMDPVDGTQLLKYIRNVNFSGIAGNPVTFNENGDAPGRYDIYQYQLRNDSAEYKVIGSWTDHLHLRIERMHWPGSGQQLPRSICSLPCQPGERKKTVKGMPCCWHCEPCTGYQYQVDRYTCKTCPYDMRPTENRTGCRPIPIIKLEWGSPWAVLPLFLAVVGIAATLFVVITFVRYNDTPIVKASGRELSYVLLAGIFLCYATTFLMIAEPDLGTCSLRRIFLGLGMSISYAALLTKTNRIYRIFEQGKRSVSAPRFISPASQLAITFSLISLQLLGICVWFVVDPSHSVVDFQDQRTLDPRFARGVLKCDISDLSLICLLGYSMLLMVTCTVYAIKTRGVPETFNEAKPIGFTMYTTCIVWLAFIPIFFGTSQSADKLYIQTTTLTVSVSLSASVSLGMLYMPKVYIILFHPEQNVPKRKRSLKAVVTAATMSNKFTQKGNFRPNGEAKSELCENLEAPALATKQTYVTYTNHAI
Experiment: Positive allosteric modulation of recombinant human mGlu4 receptor expressed in HEK293 cells co-expressing Gi/Gq assessed as increase in glutamate-induced calcium flux preincubated for 10 mins followed by glutamate addition measured for 3 mins by Fluo4-AM dye based fluorescence assay
Format: functional, cell-based
Conditions: read-out: EC50
Dear colleague, please return just the value in nM, with no unit written.

The observed EC50 for O/N=c1\cc(-c2cn3cccc3cn2)oc2ccccc12 when tested with Metabotropic glutamate receptor 4 (Homo sapiens) stands at 280

The observed EC50 for COc1ccc2oc(-c3cc4ccccc4cn3)c/c(=N\O)c2c1 when tested with Metabotropic glutamate receptor 4 (Homo sapiens) stands at 1390

The observed EC50 for Cc1cc(CCCOc2ccc3oc(-c4cc5cccn5cn4)c/c(=N\O)c3c2)ccn1 when tested with Metabotropic glutamate receptor 4 (Homo sapiens) stands at 19

The observed EC50 for O/N=c1\cc(/C=C/c2ccccc2)oc2ccccc12 when tested with Metabotropic glutamate receptor 4 (Homo sapiens) stands at 14200

The observed EC50 for O/N=c1\cc(-c2cc3sccc3cn2)oc2ccc(CCCN3CCC(F)(F)CC3)cc12 when tested with Metabotropic glutamate receptor 4 (Homo sapiens) stands at 106

The observed EC50 for O/N=c1\cc(-c2cc3cccn3cn2)oc2ccc(OCCN3CCCC3)cc12 when tested with Metabotropic glutamate receptor 4 (Homo sapiens) stands at 2340

The observed EC50 for COCCOc1ccc2/c(=N/O)cc(-c3cc4ccccc4cn3)oc2c1 when tested with Metabotropic glutamate receptor 4 (Homo sapiens) stands at 3010

The observed EC50 for O/N=c1\cc(-c2cc3ccccc3cn2)oc2ccc(Br)cc12 when tested with Metabotropic glutamate receptor 4 (Homo sapiens) stands at 690

The observed EC50 for O/N=c1\cc(-c2cc3ncccc3cn2)oc2ccccc12 when tested with Metabotropic glutamate receptor 4 (Homo sapiens) stands at 240

The observed EC50 for CC(=O)N1CCC(COc2ccc3oc(-c4cc5sccc5cn4)c/c(=N\O)c3c2)CC1 when tested with Metabotropic glutamate receptor 4 (Homo sapiens) stands at 6

The observed EC50 for CN(C)C(=O)N1CC(Oc2ccc3oc(-c4cc5cccn5cn4)c/c(=N\O)c3c2)C1 when tested with Metabotropic glutamate receptor 4 (Homo sapiens) stands at 35

The observed EC50 for COCCOc1ccc2oc(-c3cc4cccn4cn3)c/c(=N\O)c2c1 when tested with Metabotropic glutamate receptor 4 (Homo sapiens) stands at 160

====

Experiment: Oral bioavailability in Sprague-Dawley rat plasma at 10 mg/kg administered as single dose by LC-MS/MS analysis
Assay type: ADME, organism-based
Assay readout: bioavailability
Phrase the answer as number then unit, nothing more needed.

Recorded bioavailability (compound O/N=c1\cc(-c2cc3cccn3cn2)oc2ccc(OCCN3CCOCC3)cc12 ): 54%

====

Test: AUC (0 to infinity) in Sprague-Dawley rat at 1 mg/kg, iv administered as single dose by LC-MS/MS analysis
Format: ADME, organism-based
Design: dose 1 mg/kg, route intravenous, time infinity
Settings: in vivo
Exercise: for every item that follows, state its recorded AUC(0-inf).
Dear colleague, please return just the value in ng·h/mL, with no unit written.

Recorded AUC(0-inf) (molecule O/N=c1\cc(-c2cc3sccc3cn2)oc2ccc(CCCN3CCOCC3)cc12 ): 163

Recorded AUC(0-inf) (molecule O/N=c1\cc(-c2cc3cccn3cn2)oc2ccc(OCCN3CCOCC3)cc12 ): 166

====

Exercise: for every item that follows, state its recorded half-life.
Experiment: Half life in Sprague-Dawley rat at 1 mg/kg, iv administered as single dose by LC-MS/MS analysis
Type: ADME, organism-based
Conditions: in vivo
Dear colleague, please return just the value in min, with no unit written.

Recorded half-life (molecule O/N=c1\cc(-c2cc3cccn3cn2)oc2ccc(OCCN3CCOCC3)cc12 ): 44

Recorded half-life (molecule O/N=c1\cc(-c2cc3sccc3cn2)oc2ccc(CCCN3CCOCC3)cc12 ): 54

====

Experiment: Half life in Sprague-Dawley rat plasma at 10 mg/kg, po administered as single dose by LC-MS/MS analysis
Type: ADME, organism-based
Assay readout: half-life (min)
Dear colleague, please return just the value in min, with no unit written.

Recorded half-life (compound O/N=c1\cc(-c2cc3cccn3cn2)oc2ccc(OCCN3CCOCC3)cc12 ): 438

====

Test: Drug uptake in Sprague-Dawley rat brain at 30 mg/kg, ip after 120 mins
Format: ADME, organism-based
Conditions: read-out: Drug uptake
Assay readout: concentration at 2 h (ng/g)
Dear colleague, please return just the value in ng/g, with no unit written.

Recorded concentration at 2 h (compound O/N=c1\cc(-c2cc3cccn3cn2)oc2ccc(OCCN3CCOCC3)cc12 ): 1740

====

Experiment: Drug uptake in Sprague-Dawley rat brain at 30 mg/kg, ip after 240 mins
Type: ADME, organism-based
Details: read-out: Drug uptake
Assay readout: concentration at 4 h (ng/g)
Dear colleague, please return just the value in ng/g, with no unit written.

Recorded concentration at 4 h (compound O/N=c1\cc(-c2cc3cccn3cn2)oc2ccc(OCCN3CCOCC3)cc12 ): 322

====

Assay: AUC (0 to infinity) in Sprague-Dawley rat plasma at 10 mg/kg, ip administered as single dose by LC-MS/MS analysis
Type: ADME, organism-based
Design: dose 10 mg/kg, time infinity, route intraperitoneal
Assay readout: AUC(0-inf) (ng·h/mL)
Dear colleague, please return just the value in ng·h/mL, with no unit written.

Recorded AUC(0-inf) (molecule O/N=c1\cc(-c2cc3cccn3cn2)oc2ccc(OCCN3CCOCC3)cc12 ): 2240

====

Assay: Drug uptake in Sprague-Dawley rat brain at 30 mg/kg, ip after 30 mins
Type: ADME, organism-based
Conditions: read-out: Drug uptake
Assay readout: concentration at 0.5 h (ng/g)
Dear colleague, please return just the value in ng/g, with no unit written.

Recorded concentration at 0.5 h (molecule O/N=c1\cc(-c2cc3cccn3cn2)oc2ccc(OCCN3CCOCC3)cc12 ): 22800

====

Test: AUC (0 to infinity) in Sprague-Dawley rat plasma at 30 mg/kg, ip administered as single dose by LC-MS/MS analysis
Type: ADME, organism-based
Set-up: dose 30 mg/kg, time infinity, route intraperitoneal
Assay readout: AUC(0-inf) (ng·h/mL)
Dear colleague, please return just the value in ng·h/mL, with no unit written.

Recorded AUC(0-inf) (compound O/N=c1\cc(-c2cc3cccn3cn2)oc2ccc(OCCN3CCOCC3)cc12 ): 11300

====

Exercise: for every item that follows, state its recorded concentration at 0.5 h.
Assay: Drug uptake in Sprague-Dawley rat brain at 10 mg/kg, po after 30 mins post dose administered as single dose by LC-MS/MS analysis
Assay type: ADME, organism-based
Conditions: read-out: Drug uptake
Dear colleague, please return just the value in ng/g, with no unit written.

Recorded concentration at 0.5 h (molecule O/N=c1\cc(-c2cc3sccc3cn2)oc2ccc(OCCN3CCOCC3)cc12 ): 408

Recorded concentration at 0.5 h (molecule O/N=c1\cc(-c2cc3sccc3cn2)oc2ccc(OCCN3CCC(F)(F)CC3)cc12 ): 239

Recorded concentration at 0.5 h (molecule O/N=c1\cc(-c2cc3cccn3cn2)oc2ccc(OCCN3CCOCC3)cc12 ): 454
